These measurements were taken from ChEMBL document CHEMBL1138402.

Target: UniProtKB P51681
Test: Displacement of [125I]MIP1-alpha from human CCR5/CD4 expressed in HEK293 cells
Result Type: IC50 (nM)
I only need the number, in nM, no unit after it.

Which measured IC50 value corresponds to COC(=O)c1cccc(COc2ccc(Br)cc2/C=N/NC(=N)N)c1 ?
1600

Which measured IC50 value corresponds to N=C(N)N/N=C/c1cc(Cl)ccc1OCc1ccc(Cl)cc1 ?
600

Which measured IC50 value corresponds to N=C(N)N/N=C/c1cc(Br)ccc1OCc1cccc2ccccc12 ?
1100

Which measured IC50 value corresponds to N=C(N)N/N=C/c1cc(Br)ccc1OCc1ccc(F)cc1F ?
3700

---

Biological target: C-C chemokine receptor type 5 (Homo sapiens, UniProt P51681)
Sequence (P51681 whole entry): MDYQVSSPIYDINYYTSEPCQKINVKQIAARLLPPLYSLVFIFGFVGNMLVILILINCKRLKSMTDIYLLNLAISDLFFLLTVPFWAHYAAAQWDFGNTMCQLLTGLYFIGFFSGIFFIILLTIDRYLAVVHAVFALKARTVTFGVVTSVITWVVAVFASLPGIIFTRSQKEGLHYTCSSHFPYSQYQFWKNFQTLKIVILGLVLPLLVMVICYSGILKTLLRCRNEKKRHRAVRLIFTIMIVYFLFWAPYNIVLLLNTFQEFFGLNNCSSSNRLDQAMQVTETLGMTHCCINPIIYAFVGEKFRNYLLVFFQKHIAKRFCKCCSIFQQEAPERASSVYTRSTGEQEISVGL
Assay: Displacement of [125I]MIP1-alpha from human CCR5/CD4 expressed in HEK293 cells
pIC50: −log10 of the molar value.
Would you mind labelling by pIC50? At or over 6 is true, under is false.

Determine whether this compound has pIC50 no lower than 6: COc1ccc([N+](=O)[O-])cc1COc1ccc(Br)cc1/C=N/NC(=N)N
false

Determine whether this compound has pIC50 no lower than 6: N#Cc1ccc(COc2ccc(Br)cc2/C=N/NC(=N)N)cc1
true

Determine whether this compound has pIC50 no lower than 6: N=C(N)N/N=C/c1cc(Br)ccc1OCc1ccccc1
false

Determine whether this compound has pIC50 no lower than 6: N=C(N)N/N=C/c1cc(Cl)cc(Cl)c1OCc1ccc(Cl)cc1
false

Determine whether this compound has pIC50 no lower than 6: N=C(N)N/N=C/c1cc(F)ccc1OCc1ccc(Cl)cc1
false

---

Could you please report measured IC50 for the items listed next?
Target: C-C chemokine receptor type 5 (Homo sapiens)
Assay: Displacement of [125I]MIP1-alpha from human CCR5/CD4 expressed in HEK293 cells
I only need the number, in nM, no unit after it.

Which measured IC50 value corresponds to Cc1cccc(COc2ccc(Br)cc2/C=N/NC(=N)N)c1 ?
1700

Which measured IC50 value corresponds to N#Cc1cccc(COc2ccc(Br)cc2/C=N/NC(=N)N)c1 ?
2000

Which measured IC50 value corresponds to COc1cc(Br)cc(/C(C)=N/NC(=N)N)c1OCc1ccc(C#N)cc1 ?
93

Which measured IC50 value corresponds to N=C(N)N/N=C/c1cc([N+](=O)[O-])ccc1OCc1ccc(Cl)cc1 ?
1200

Which measured IC50 value corresponds to C/C(=N/NC(=N)N)c1cc(Cl)ccc1OCc1ccc(Cl)cc1 ?
8500

Which measured IC50 value corresponds to COC(=O)c1ccc(COc2ccc(Br)cc2/C=N/NC(=N)N)cc1 ?
1300

Which measured IC50 value corresponds to N=C(N)N/N=C/c1cc(Br)ccc1OCc1ccc(-c2ccccc2)cc1 ?
1700

Which measured IC50 value corresponds to N=C(N)N/N=C/c1cc(Br)ccc1OCc1ccc(OCc2ccccc2)cc1 ?
2900

Which measured IC50 value corresponds to N=C(N)N/N=C/c1cc(Br)ccc1OCc1ccc(Cl)cc1 ?
840
